Recorded values, source ChEMBL document CHEMBL2412971.

Target: Orexin/Hypocretin receptor type 1 (Homo sapiens)
Sequence (O43613 whole entry): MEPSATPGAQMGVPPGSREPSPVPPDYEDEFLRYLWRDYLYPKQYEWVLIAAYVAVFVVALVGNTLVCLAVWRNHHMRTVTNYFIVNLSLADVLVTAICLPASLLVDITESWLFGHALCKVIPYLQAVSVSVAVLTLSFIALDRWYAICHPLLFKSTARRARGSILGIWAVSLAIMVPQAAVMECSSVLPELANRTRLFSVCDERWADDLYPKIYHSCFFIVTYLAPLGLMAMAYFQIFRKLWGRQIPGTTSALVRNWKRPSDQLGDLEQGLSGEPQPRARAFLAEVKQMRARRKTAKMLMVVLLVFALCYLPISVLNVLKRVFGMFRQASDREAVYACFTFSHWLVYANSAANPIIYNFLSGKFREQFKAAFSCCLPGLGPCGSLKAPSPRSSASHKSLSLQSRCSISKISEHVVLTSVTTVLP
Experiment: Antagonist activity at human orexin receptor 1 expressed in CHO cells assessed as inhibition of orexin-A-induced calcium flux by FLIPR assay
Format: functional, cell-based
Property label: IC50 (µM)
Respond with the bare value in µM.

Below, 3 compounds whose answers are already recorded.
> print(dat)
                                   compound  property.label  readout.unit  readout.value
1  CN(Cc1ccccc1)C(=O)Cn1cc(S(=O)(=O)Cc2ccccc2)c2ccccc21            IC50            µM           3.46
2  Cc1cccc(-c2sc(C)nc2C(=O)N2CCC2CNC(=O)c2c(N)nc3sccn23)c1 (racemic)            IC50            µM           0.01
3  Cc1cccc(-c2sc(C)nc2C(=O)N2CCC2CNC(=O)c2cccc3c2OCCN3C)c1 (racemic)            IC50            µM            3.1

q: Given the entry `O=C(Cn1cc(S(=O)(=O)Cc2ccc(F)cc2)c2ccccc21)NCc1ccc(F)cc1` , report its measured IC50.
a: 9.19
